Where do the numbers come from? From patent US8080547B2.

# STUDY_SYSTEM: MGL (monoacyl glycerol lipase) enzyme (Mus musculus, UniProt O35678)
# Sequence (O35678 1-303): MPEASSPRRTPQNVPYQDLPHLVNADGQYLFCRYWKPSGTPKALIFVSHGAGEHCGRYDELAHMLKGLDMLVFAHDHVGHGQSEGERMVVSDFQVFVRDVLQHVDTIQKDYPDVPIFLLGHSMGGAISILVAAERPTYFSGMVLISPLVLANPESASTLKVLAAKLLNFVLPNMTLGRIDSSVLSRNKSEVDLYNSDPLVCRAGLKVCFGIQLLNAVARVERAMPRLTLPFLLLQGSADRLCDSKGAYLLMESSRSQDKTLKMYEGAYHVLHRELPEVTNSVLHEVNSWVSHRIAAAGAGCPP
MEASURED_PARAMETER: pIC50
In textbook form, pIC50 equals minus log to base ten of the concentration in mol/L.

get_value(item= O=C(N1CCN(c2cccc(C(F)(F)F)c2)CC1)n1nnc2ccc(N3CCOCC3)nc21 , readout=pIC50) returns 8.40

###

Documented melting point across a set of compounds

Answered cases to consult:
{"columns": ["ITEM_SMILES", "melting point"],
 "data": [
  ["O=C(N1CCN(c2cccc(C(F)(F)F)c2)CC1)n1nnc2ccc(N3CCOCC3)nc21", "172 to 174 °C"],
  ["O=C(N1CCN(c2ccc(C(F)(F)F)cc2)CC1)n1nnc2ccc(N3CCC(F)(F)C3)nc21", "141 to 143 °C"],
  ["COc1ccc(N2CCN(C(=O)n3nnc4ccc(N5CCCC5)nc43)CC2)cc1", "138 to 140 °C"]
]}

Note: attention shifts to another entry.
get_value(item= O=C(N1CCN(c2cccc(C(F)(F)F)c2)CC1)n1nnc2ccc(N3CCCC3)nc21 , readout=melting point) returns 158 to 160 °C

###

# STUDY_SYSTEM: FAAH (Fatty Acid Amide Hydrolase) enzyme (Mus musculus, UniProt O08914)
# Sequence (O08914 1-579): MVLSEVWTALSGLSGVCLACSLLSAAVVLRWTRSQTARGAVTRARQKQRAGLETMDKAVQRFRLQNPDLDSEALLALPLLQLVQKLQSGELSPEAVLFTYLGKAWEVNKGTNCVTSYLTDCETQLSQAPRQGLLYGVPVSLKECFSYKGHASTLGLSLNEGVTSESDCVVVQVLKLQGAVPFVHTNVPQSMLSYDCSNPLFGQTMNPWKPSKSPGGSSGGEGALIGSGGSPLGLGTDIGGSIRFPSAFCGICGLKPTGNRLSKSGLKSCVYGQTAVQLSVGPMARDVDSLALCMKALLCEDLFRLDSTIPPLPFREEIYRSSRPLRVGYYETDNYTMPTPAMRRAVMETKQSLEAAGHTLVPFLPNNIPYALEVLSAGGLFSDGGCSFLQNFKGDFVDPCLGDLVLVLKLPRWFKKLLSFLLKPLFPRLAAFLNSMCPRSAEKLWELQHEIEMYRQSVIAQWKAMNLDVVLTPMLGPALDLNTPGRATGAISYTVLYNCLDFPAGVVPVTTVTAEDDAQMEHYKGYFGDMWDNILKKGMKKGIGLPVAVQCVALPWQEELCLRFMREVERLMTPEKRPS
MEASURED_PARAMETER: pIC50
In textbook form, pIC50 equals minus log to base ten of the concentration in mol/L.

get_value(item= O=C(N1CCN(c2cccc(C(F)(F)F)c2)CC1)n1nnc2ccc(N3CCOCC3)nc21 , readout=pIC50) returns 8.00
